# Assayed target: Bcl-xL (Homo sapiens, UniProt Q07817)
# Construct: myc-Bcl-xL SPOT array & FP; made in house
# Sequence (Q07817 with tags, fused parts or gaps): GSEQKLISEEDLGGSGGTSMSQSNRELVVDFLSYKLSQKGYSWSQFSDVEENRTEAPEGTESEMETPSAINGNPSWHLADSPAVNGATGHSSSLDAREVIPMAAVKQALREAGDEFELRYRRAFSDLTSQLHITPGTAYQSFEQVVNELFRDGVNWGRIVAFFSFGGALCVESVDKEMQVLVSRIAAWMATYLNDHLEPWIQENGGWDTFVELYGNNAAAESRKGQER
# Assay notes: LUMIER full-length protein interaction
# Type: binding
# Condition details: LUMIER results for Bcl-xL; Z-score relative to Gaussian fit of the data; experiment 1, duplicate 1
# Procedure: The LUMIER assay was carried out as previously described with the following modifications. A stable cell line expressing receptor tagged on the N-terminus with Nanoluc luciferase was created (the prey). […] After incubation and washing, luminescence was measured to quantify how much receptor-luciferase was captured by the bait protein. […]
For each entry below, report its z-score 1.1 value.

Query block: What value of z-score 1.1 has been recorded for this entry: SGCA (LFWTPLLVVLLAGLGDTEAQQTTLHP)
Result block: 1.122

Query block: Subsequent entry: CASP8 (PFKKMDFSRNLYDIGEQLDSEDLASL)
Result block: 0.03556

Query block: Then this substance: RNF160 (WLKGDILGEKLVNLADCLCNEDLESR)
Result block: -0.1237

Query block: Repeat for the following substance: GBP6 (NDDTPWIARTLDNLADELTAILSAPA)
Result block: 0.2217

Query block: How about PRDX4 (LDFTFVCPTEIIAFGDRLEEFRSINT) ?
Result block: -0.3595

Query block: Now the substance EXOC4 (MQTLSELAKSFQDMADRCLLVLHLEV)
Result block: 0.7648

Query block: // query: FOXI1 (PDKRLTLSQIYQYVADNFPFYNKSKA)
Result block: 4.354

Query block: Proceed to STK11IP (DSLLWKLAGLLRESGDVVLSGCSTLS)
Result block: -2.105

Query block: Quick one: CYP2A6 (MPYMEAVIHEIQRFGDVIPMSLARRV)
Result block: -0.01422

Query block: Check TTC31 (DLSSTFVSLALRKVGDWPLSARREKG) too.
Result block: 0.5842

Query block: Please do the same for TMEM214 (SFLSAHCASHLAWFGDSLTSLSQRLQ) as well.
Result block: 0.1125

Query block: Same question, ACN9 (LQLHRVLPPDLKSLGDQYVKDEFRRH) this time
Result block: 2.487

---

# Assayed target: Bcl-xL (Homo sapiens)
# Construct: myc-Bcl-xL SPOT array & FP; made in house
# Assay notes: LUMIER full-length protein interaction
# Format: binding
# Condition details: LUMIER results for Bcl-xL; Z-score relative to Gaussian fit of the data; experiment 1, duplicate 2
Readout name: z-score 1.2
Provide a numeric answer; units are not to be included.

Query block: Which value of z-score 1.2 has been reported for STK11IP (DSLLWKLAGLLRESGDVVLSGCSTLS) in the records?
Result block: -2.491

Query block: What do you get for SMPD2 (PYLSKHRADRMRRLGDFLNQESFDLA) ?
Result block: 2.876

Query block: Try this substance too: TMEM184C (SDIRDDISEQVRHVGRTVRGHPRKKL)
Result block: -0.4557

Query block: Would you mind doing PRDX4 (LDFTFVCPTEIIAFGDRLEEFRSINT) as well?
Result block: -2.173

Query block: Now try GBP6 (NDDTPWIARTLDNLADELTAILSAPA) .
Result block: -0.6971

Query block: Try the substance PPAT (RLRQLGVAKKFGVLSDNFKGKRIVLV)
Result block: 0.4308

Query block: Similarly, COL2A1 (VLLTLLVAAVLRCQGQDVQEAGSCVQ) ?
Result block: -1.523

Query block: Field entry: NOL8 (KYDPSKYCHNLKKIGEDFSNTIPISS)
Result block: -1.268

Query block: Queued: TTC31 (DLSSTFVSLALRKVGDWPLSARREKG)
Result block: 0.512

Query block: Same read-out for FOXI1 (PDKRLTLSQIYQYVADNFPFYNKSKA) ?
Result block: -0.599

Query block: Also check EXOC4 (MQTLSELAKSFQDMADRCLLVLHLEV)
Result block: -1.829

Query block: Same for CTSL2 (SQGKHGFTMAMNAFGDMTNEEFRQMM)
Result block: -1.625
